# maps each entry to its abundance fitness
B1: Transitional endoplasmic reticulum ATPase, residues 26 to 106; numbered along this chain, P55072 (parent)
chain: LIVDEAINEDNSVVSLSQPKMDELQLFRGDTVLLKGKKRREAVCIVLSDDTCSDEKIRMNRVVRNNLRVRLGDVISIQPCP

Variants of: B1
Test: abundance fitness (aPCA) (normalised: wild type 0, dead -1); higher = more abundant; growth selection in yeast, the domain comes from the species named
Conditions: Homo sapiens
Hey, just send me the number, nothing else.

D50M    0.025

stdin: For the variant `V14L` , give its measured abundance fitness value.
stdout: -0.763

stdin: For the variant `N66P` , give its measured abundance fitness value.
stdout: -0.952

stdin: For the variant `Q78T` , give its measured abundance fitness value.
stdout: -0.003

stdin: For the variant `D22E` , give its measured abundance fitness value.
stdout: -0.038

stdin: For the variant `Q18T` , give its measured abundance fitness value.
stdout: -0.148

Ref: the Human Domainome abundance scans (Beltran et al. 2025)
